# Test system: UO31 cell line
# TEST DETAILS: Cytotoxic activity (IC50) on kidney cancer cell line UO31
# Type: cell-based
# DETAILS: Homo sapiens, UO-31; U031 (kidney cancer cell line); read-out: Cytotoxic Activity ( IC 50 )
Catalogue of compounds with associated IC50

COMPOUND	IC50
C=C1CC[C@@H]2[C@](C)(CO)[C@H](O)CC[C@@]2(C)[C@@H]1COc1ccc2ccc(=O)oc2c1 [REFERENCE MOLECULE V]	> 50 µM
C=C1CC[C@@H]2C(C)(C)C(=O)CC[C@@]2(C)[C@@H]1COc1ccc2ccc(=O)oc2c1 [REFERENCE MOLECULE III]	11 µM

# compound C=C1CC[C@H]2[C@@](C)(CCC(=O)[C@@]2(C)COC(C)=O)[C@@H]1COc1ccc2ccc(=O)oc2c1 [REFERENCE MOLECULE IV] ; its IC50 = > 50 µM
